Biological target: Jak2 (UniProt O60674)
Sequence (O60674 whole entry, looked up): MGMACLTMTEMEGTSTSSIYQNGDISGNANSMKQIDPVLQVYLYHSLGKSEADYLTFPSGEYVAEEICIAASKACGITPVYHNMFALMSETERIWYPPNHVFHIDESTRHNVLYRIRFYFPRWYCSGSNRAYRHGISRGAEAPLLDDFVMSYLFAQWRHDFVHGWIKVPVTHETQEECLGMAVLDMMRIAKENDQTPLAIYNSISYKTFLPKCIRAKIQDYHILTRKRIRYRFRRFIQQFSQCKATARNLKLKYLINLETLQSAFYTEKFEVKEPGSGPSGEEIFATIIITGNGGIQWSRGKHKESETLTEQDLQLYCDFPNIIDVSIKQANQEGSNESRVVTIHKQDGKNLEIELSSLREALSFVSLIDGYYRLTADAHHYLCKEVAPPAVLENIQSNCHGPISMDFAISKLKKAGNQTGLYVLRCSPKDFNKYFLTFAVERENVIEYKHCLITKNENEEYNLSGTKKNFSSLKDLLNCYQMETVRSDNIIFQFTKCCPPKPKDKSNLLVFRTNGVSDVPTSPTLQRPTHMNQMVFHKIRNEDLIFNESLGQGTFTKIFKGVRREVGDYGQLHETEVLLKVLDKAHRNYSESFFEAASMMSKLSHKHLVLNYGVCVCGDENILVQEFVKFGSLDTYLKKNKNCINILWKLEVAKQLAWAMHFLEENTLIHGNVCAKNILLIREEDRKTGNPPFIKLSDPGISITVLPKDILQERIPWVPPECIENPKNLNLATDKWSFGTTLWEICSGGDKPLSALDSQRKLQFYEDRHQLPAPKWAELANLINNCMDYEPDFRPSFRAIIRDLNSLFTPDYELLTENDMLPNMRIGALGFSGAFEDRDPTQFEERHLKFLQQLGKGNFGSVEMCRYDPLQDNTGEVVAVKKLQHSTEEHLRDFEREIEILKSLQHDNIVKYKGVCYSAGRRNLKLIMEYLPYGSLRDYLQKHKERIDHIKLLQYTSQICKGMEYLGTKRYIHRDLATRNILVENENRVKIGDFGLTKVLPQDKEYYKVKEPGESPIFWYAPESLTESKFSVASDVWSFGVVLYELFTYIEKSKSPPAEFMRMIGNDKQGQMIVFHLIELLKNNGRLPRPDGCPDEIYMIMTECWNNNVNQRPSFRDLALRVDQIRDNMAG
Assay: phosphorylation enrichment, bacterial display (enrichment ratio); higher = better substrate or ligand; peptides without Tyr show the background;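 note: 11-residue human phosphosite peptides and single-mutation variants displayed on the E. coli surface, counted by deep sequencing, each peptide's frequency after selection divided by its frequency in the unselected input library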;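 note: frequency after pTyr selection over input frequency; kinase dosed for 20-30% of maximal phosphorylation in three min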
Value Type: phosphorylation enrichment

>>> df
                        sequence_entry           assay_target                  value_type  value
 0         AHAGEYGEEAL [HBA1_Y25_A27E]  Jak2 (UniProt O60674)  phosphorylation enrichment   1.35
 1   ASKEPYFVHCI [MYO1D_Y585_R588H_YF]  Jak2 (UniProt O60674)  phosphorylation enrichment  0.675
 2     RLNCIYFKDQT [RS1_Y165_W163C_YF]  Jak2 (UniProt O60674)  phosphorylation enrichment    1.3
 3        TQRPFYKGGGG [TYROBP_Y112_YF]  Jak2 (UniProt O60674)  phosphorylation enrichment  0.451
 4  NFDRIYIFHLR [MYOF_Y1137_V1136I_YF]  Jak2 (UniProt O60674)  phosphorylation enrichment   1.46
 5       EPSLVYMVTKI [CPS1_Y768_D767V]  Jak2 (UniProt O60674)  phosphorylation enrichment   1.04
 6         DVFVSYDFGKS [SORL1_Y139_YF]  Jak2 (UniProt O60674)  phosphorylation enrichment  0.906
 7    RCKNHYAAFSV [C1QTNF1_Y145_S143N]  Jak2 (UniProt O60674)  phosphorylation enrichment   0.63
 8      LLKNMYLMLDN [STAT1_Y203_K201N]  Jak2 (UniProt O60674)  phosphorylation enrichment   2.77
 9        GHEFIYVDPMQ [PDGFRA_Y574_YF]  Jak2 (UniProt O60674)  phosphorylation enrichment  0.818
10     LKALHYMAQTS [SACS_Y3367_V3369A]  Jak2 (UniProt O60674)  phosphorylation enrichment  0.751
11   LRTAVHHEILI [CREBBP_Y1450_Y1450H]  Jak2 (UniProt O60674)  phosphorylation enrichment   1.32
12       CKLVDYDSARH [BIN1_Y150_R145C]  Jak2 (UniProt O60674)  phosphorylation enrichment   0.66

###

Test system: AncSZ
Assay: phosphorylation enrichment, bacterial display (enrichment ratio); higher = better substrate or ligand; peptides without Tyr show the background
Label 0.0 if phosphorylation enrichment falls below 1; label 1.0 in every other case.

In [3]: df
Out[3]:
                       sequence_entry  assay_target  class_label
 0          QYRFIYMAVQH [PTPN11_Y515]         AncSZ          1.0
 1        ALIKAYVKAVA [SMN1_Y43_D44V]         AncSZ          0.0
 2           GVYSRYFTTYD [CLCA1_Y661]         AncSZ          1.0
 3  LRTAVHHEILI [CREBBP_Y1450_Y1450H]         AncSZ          1.0
 4     QMQNPYSSHSS [MUC13_Y501_R503S]         AncSZ          0.0
 5    SLGSPYEQPPR [PDLIM4_Y137_G138E]         AncSZ          0.0
 6     LRGEDCGFSVD [PRKCI_Y430_Y430C]         AncSZ          1.0
 7            IEDPYYGNDSD [ACP1_Y133]         AncSZ          1.0
 8      KDGIGYISAAE [CALM2_Y100_N98I]         AncSZ          0.0
 9           LEQQKYTVTVD [IKBKB_Y199]         AncSZ          1.0
10            KTKLGYSPLHQ [ANK1_Y735]         AncSZ          0.0
